Taken from patent US20240209076A1.

molecular target: T1, human IL-6 (human, UniProt P05231 30-212); assay: SPR Biacore, supernatant Ab on Protein A chip, 37 C
T1 construct: IL-6 flowed over captured antibodies
T1 sequence (P05231 30-212 limits assumed): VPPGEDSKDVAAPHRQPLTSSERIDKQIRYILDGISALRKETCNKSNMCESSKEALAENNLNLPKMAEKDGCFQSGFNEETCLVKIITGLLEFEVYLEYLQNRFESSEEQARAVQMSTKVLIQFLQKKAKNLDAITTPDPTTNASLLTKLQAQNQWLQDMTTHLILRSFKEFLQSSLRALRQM
pKd for assorted binders
pKd field: float, defined as -log10 of concentration (mol/L).

Before answering, review these 2 worked examples.
[
  {
    "binder": "anti-IL-6 antibody, heavy chain T65L, G66D / light chain M32L, M50D, N52S, M88Q (antibody, IgG1, V domains shown, Full IgG1 (Expi293); VL = variant III) VH: EVQLVESGGGLVQPGGSLRLSCAASGFTFSPFAMSWVRQAPGKGLEWVAKISPGGSWTYYSDTVLDRFTFSLDTSKSTAYLQMNSLRAEDTAVYYCARQLWGYYALDIWGQGTLVTVSS VL: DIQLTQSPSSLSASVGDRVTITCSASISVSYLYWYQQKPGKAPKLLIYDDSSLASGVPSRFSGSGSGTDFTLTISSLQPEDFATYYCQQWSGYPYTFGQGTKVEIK",
    "testResult": 9.53
  },
  {
    "binder": "anti-IL-6 antibody, heavy chain I51H, G66D / light chain M32L, M50D, N52S, M88Q (antibody, IgG1, V domains shown, Full IgG1 (Expi293); VL = variant III) VH: EVQLVESGGGLVQPGGSLRLSCAASGFTFSPFAMSWVRQAPGKGLEWVAKHSPGGSWTYYSDTVTDRFTFSLDTSKSTAYLQMNSLRAEDTAVYYCARQLWGYYALDIWGQGTLVTVSS VL: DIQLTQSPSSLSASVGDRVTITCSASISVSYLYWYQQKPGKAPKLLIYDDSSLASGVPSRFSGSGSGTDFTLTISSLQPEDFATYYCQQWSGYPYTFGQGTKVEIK",
    "testResult": 9.30
  }
]

Item under review: anti-IL-6 antibody, heavy chain T63I, G66D / light chain M32L, M50D, N52S, M88Q (antibody, IgG1, V domains shown, Full IgG1 (Expi293); VL = variant III) VH: EVQLVESGGGLVQPGGSLRLSCAASGFTFSPFAMSWVRQAPGKGLEWVAKISPGGSWTYYSDIVTDRFTFSLDTSKSTAYLQMNSLRAEDTAVYYCARQLWGYYALDIWGQGTLVTVSS VL: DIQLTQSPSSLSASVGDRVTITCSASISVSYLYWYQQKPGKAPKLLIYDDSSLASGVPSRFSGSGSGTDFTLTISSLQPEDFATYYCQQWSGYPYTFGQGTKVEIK . Reported pKd?
9.54
